Biological target: 5-hydroxytryptamine receptor 1A (Rattus norvegicus)
Sequence (P19327 whole entry): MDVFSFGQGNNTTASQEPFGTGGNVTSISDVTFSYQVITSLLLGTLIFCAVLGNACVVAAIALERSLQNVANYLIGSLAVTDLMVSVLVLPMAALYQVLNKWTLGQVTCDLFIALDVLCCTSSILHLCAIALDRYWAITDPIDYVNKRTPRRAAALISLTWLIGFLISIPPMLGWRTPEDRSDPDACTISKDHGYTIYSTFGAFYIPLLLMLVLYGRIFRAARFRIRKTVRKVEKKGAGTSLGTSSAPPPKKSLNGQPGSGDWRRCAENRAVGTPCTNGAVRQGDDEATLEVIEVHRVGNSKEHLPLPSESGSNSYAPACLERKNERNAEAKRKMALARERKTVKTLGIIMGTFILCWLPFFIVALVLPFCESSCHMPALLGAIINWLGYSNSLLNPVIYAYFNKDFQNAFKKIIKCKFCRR
endpointLabel: pKi
// pKi is dimensionless: -log10 of concentration (M)

// pKi value for COc1ccccc1-c1c(=O)n(CCCCN2CCC(c3c[nH]c4ccc(F)cc34)CC2)c(=O)n2ccccc12 : 8.25

# pKi of O=c1c(-c2ccc(Cl)cc2)c2ccccn2c(=O)n1CCCCN1CC=C(c2c[nH]c3ccc(F)cc23)CC1 = 6.58

The compound O=c1c(-c2ccccc2F)c2ccccn2c(=O)n1CCCCN1CC=C(c2c[nH]c3ccc(Cl)cc23)CC1 showed pKi equal to 7.01

---

Assay: Metabolic stability in human liver microsomes assessed as compound remaining at 10 uM after 60 mins by LC/MS analysis
Format: ADME
Settings: read-out: Stability
Could you please mark MET for values of remaining at 1 h, 10 µM below 60% and NOT MET for values at or above it?

Answer whether the compound Cc1ccc(-c2c(=O)n(CCCCN3CC=C(c4c[nH]c5ccc(Cl)cc45)CC3)c(=O)n3ccccc23)cc1 has remaining at 1 h, 10 µM strictly less than 60%
NOT MET

A record lists O=c1c(-c2ccc(F)cc2)c2ccccn2c(=O)n1CCCCN1CC=C(c2c[nH]c3ccc(Br)cc23)CC1 . Is its remaining at 1 h, 10 µM below 60%?
MET

Determine if COc1ccccc1-c1c(=O)n(CCCCN2CC=C(c3c[nH]c4ccc(F)cc34)CC2)c(=O)n2ccccc12 shows remaining at 1 h, 10 µM strictly lower than 60%.
NOT MET

Threshold test, remaining at 1 h, 10 µM < 60%: COc1ccccc1-c1c(=O)n(CCCCN2CC=C(c3c[nH]c4ccc(Cl)cc34)CC2)c(=O)n2ccccc12
MET

Please let me know if O=c1c(-c2ccccc2)c2ccccn2c(=O)n1CCCCN1CC=C(c2c[nH]c3ccc(Br)cc23)CC1 shows remaining at 1 h, 10 µM below 60%.
NOT MET

Bench note: check whether O=c1c(-c2ccccc2)c2ccccn2c(=O)n1CCCCN1CC=C(c2c[nH]c3ccc(F)cc23)CC1 shows remaining at 1 h, 10 µM below 60%
NOT MET

is_below(remaining at 1 h, 10 µM, 60%) for O=c1c(-c2ccc(Cl)cc2)c2ccccn2c(=O)n1CCCCN1CC=C(c2c[nH]c3ccc(F)cc23)CC1 ?
MET

---

Target: 5-hydroxytryptamine receptor 1A (Rattus norvegicus)
endpointLabel: log10 of Ki (log10 of the value in nM)
// units: nM (pre-log); metric: Ki; scale: log10

Just so you know, measured log10 of Ki for Cc1ccc(-c2c(=O)n(CCCCN3CC=C(c4c[nH]c5ccc(Br)cc45)CC3)c(=O)n3ccccc23)cc1 came out at 2.16

Lab note: measured log10 of Ki of O=c1c(-c2ccccc2)c2ccccn2c(=O)n1CCCCN1CCC(c2c[nH]c3ccc(F)cc23)CC1 was 1.09

Noted for O=c1c(-c2ccc(F)cc2)c2ccccn2c(=O)n1CCCCN1CC=C(c2c[nH]c3ccc(Cl)cc23)CC1 : its log10 of Ki reads 2.03

log10 of Ki for O=c1c(-c2ccccc2F)c2ccccn2c(=O)n1CCCCN1CC=C(c2c[nH]c3ccc(F)cc23)CC1 is 2.06

Field log10 of Ki (entry O=c1c(-c2ccc(Cl)cc2)c2ccccn2c(=O)n1CCCCN1CCC(c2c[nH]c3ccc(F)cc23)CC1 ) reads 1.93

Given item O=c1c(-c2ccc(F)cc2)c2ccccn2c(=O)n1CCCCN1CC=C(c2c[nH]c3ccc(F)cc23)CC1 , the value recorded as its log10 of Ki is 2.34

The reported log10 of Ki of the compound O=c1c(-c2ccccc2)c2ccccn2c(=O)n1CCCCN1CC=C(c2c[nH]c3ccc(Br)cc23)CC1 was 1.60

So, O=c1c(-c2ccccc2)c2ccccn2c(=O)n1CCCCN1CC=C(c2c[nH]c3ccc(Cl)cc23)CC1 ? Its log10 of Ki was 2.10
